Target: panel of 255 wild-type kinases (Homo sapiens, UniProt P29376)
Sequence (P29376 17-864): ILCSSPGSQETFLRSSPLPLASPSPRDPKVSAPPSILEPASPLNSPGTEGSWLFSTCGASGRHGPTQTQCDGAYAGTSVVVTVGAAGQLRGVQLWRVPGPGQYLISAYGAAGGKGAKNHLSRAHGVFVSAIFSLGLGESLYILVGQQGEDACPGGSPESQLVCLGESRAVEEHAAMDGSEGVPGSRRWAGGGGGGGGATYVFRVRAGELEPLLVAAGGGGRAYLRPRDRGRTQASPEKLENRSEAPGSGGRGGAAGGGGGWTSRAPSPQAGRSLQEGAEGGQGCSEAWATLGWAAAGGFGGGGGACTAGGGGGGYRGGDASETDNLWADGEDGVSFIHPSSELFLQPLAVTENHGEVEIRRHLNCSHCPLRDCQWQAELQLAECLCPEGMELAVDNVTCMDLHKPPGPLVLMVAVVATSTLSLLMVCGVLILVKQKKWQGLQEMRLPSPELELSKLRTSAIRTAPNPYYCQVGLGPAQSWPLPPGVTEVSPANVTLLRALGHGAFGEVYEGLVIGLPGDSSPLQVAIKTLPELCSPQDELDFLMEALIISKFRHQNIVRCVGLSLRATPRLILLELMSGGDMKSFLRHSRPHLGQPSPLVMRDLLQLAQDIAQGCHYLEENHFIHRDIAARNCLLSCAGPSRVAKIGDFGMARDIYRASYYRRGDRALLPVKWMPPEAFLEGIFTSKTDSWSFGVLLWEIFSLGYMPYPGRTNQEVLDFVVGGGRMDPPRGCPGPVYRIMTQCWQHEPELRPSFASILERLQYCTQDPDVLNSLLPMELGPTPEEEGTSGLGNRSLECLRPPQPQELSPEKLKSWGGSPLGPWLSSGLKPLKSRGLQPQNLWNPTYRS
Assay: Kinase panel profiling at 1 µmol/L (MSA or IMAP), percentage inhibition
Type: biochemical
Conditions: kinase LTK; 1 µmol/L single concentration; read-out: %-inhibition at 1 µmol/L, LTK
Is inhibition at 1 µM at least 20%? Then satisfied. If not, not satisfied.

CCn1c(=O)c(-c2cc(NC(=O)Nc3ccccc3)c(F)cc2Br)cc2cnc(NC)cc21 [ripretinib]    not satisfied
COc1ccc(CN2C3CC2CN(c2ccc(-c4cc(OCC(C)(C)O)cn5ncc(C#N)c45)cn2)C3)cn1 [selpercatinib]    not satisfied
COc1cc2ncnc(Nc3ccc(F)c(Cl)c3)c2cc1NC(=O)/C=C/CN1CCCCC1 [dacomitinib]    satisfied

Tell me whether inhibition at 1 µM is at least 20% here: Cn1cc(-c2cc3c(N4CCN(c5ncc([C@@](C)(N)c6ccc(F)cc6)cn5)CC4)ncnn3c2)cn1 [avapritinib]
satisfied

Textbook exercise: given the entry Cn1cnc2c(F)c(Nc3ccc(Br)cc3F)c(C(=O)NOCCO)cc21 [binimetinib] , state whether its inhibition at 1 µM is greater than or equal to 20%.
not satisfied

Is the recorded value of inhibition at 1 µM equal to or greater than 20% for this molecule? CO[C@]1(C(=O)N[C@@H](C)c2ccc(-n3cc(F)cn3)nc2)CC[C@H](c2nc(C)cc(Nc3cc(C)[nH]n3)n2)CC1 [pralsetinib]
satisfied

###

Here the recorded inhibition at 1 µM is given for each entry.
Biological target: panel of 255 wild-type kinases (Homo sapiens, UniProt P42685)
Sequence (P42685 whole entry): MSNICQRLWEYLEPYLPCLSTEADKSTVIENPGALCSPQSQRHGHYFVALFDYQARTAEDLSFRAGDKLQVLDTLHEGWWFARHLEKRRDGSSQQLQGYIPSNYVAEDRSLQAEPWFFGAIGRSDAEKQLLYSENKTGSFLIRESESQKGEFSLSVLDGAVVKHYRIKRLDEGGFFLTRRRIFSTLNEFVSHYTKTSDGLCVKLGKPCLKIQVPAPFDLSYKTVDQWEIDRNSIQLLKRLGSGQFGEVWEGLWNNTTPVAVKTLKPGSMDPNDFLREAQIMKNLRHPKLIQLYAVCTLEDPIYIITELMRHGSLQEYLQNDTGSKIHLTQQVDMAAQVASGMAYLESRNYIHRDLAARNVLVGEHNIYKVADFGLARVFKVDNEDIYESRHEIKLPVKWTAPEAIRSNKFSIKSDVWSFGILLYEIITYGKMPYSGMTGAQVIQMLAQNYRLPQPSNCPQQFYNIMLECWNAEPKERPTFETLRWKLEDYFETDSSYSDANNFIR
Experiment: Kinase panel profiling at 1 µmol/L (MSA or IMAP), percentage inhibition
Format: biochemical
Conditions: kinase FRK; 1 µmol/L single concentration; read-out: %-inhibition at 1 µmol/L, FRK
Give the value, in units of %, as a plain number.

Here is how some compounds turned out for inhibition at 1 µM.
CCn1c(=O)c(-c2cc(NC(=O)Nc3ccccc3)c(F)cc2Br)cc2cnc(NC)cc21    87
C=CC(=O)N1CCC([C@@H]2CCNc3c(C(N)=O)c(-c4ccc(Oc5ccccc5)cc4)nn32)CC1    82
O=C(Nc1cnn2ccc(N3CCC[C@@H]3c3cc(F)ccc3F)nc12)N1CC[C@H](O)C1    -0.308
COC(=O)N[C@@H](C)CNc1nccc(-c2cn(C(C)C)nc2-c2cc(Cl)cc(NS(C)(=O)=O)c2F)n1    8
COc1ccc(CN2C3CC2CN(c2ccc(-c4cc(OCC(C)(C)O)cn5ncc(C#N)c45)cn2)C3)cn1    13

Query (compound): `CO[C@]1(C(=O)N[C@@H](C)c2ccc(-n3cc(F)cn3)nc2)CC[C@H](c2nc(C)cc(Nc3cc(C)[nH]n3)n2)CC1` ; field requested: inhibition at 1 µM
82

What does the data say about its inhibition at 1 µM? Entry: `Cn1cnc2c(F)c(Nc3ccc(Br)cc3F)c(C(=O)NOCCO)cc21`
3

So what's the measured inhibition at 1 µM for this one? `Cc1nc(NC(=O)N2CCC[C@H]2C(N)=O)sc1-c1ccnc(C(C)(C)C(F)(F)F)c1`
-2.26

I have this compound here, `Cn1cc(-c2cc3c(N4CCN(c5ncc([C@@](C)(N)c6ccc(F)cc6)cn5)CC4)ncnn3c2)cn1` , and I need its recorded inhibition at 1 µM.
25
